Each entry below lists one item and its recorded Papp value.
Test: passive permeability, PAMPA, ADME assay (AID 1508612)
Details: pH 7.4, 30.0 min, 50.0 µM

# annotated cases, reported Papp shown
>  <compound>
Fc1cnc(-c2ccccc2C(F)F)nc1NCc1ccc(-c2ccn[nH]2)cc1

>  <Papp>
> 1000 ×10⁻⁶ cm/s

$$$$
>  <compound>
Nc1cc(-c2nc(Nc3ccc(F)c(F)c3)c3ccccc3n2)ccn1

>  <Papp>
> 1000 ×10⁻⁶ cm/s

$$$$

Q) Given the entry CCc1ccc(CNc2ccc3c(c2)ncn3C(C)(C)C)cc1 , report its measured Papp.
A) > 1000 ×10⁻⁶ cm/s

Q) What do we get for Cc1ccc(OCCn2c(CCNC(=O)C3CCCCC3)nc3ccccc32)cc1 ?
A) > 1000 ×10⁻⁶ cm/s

* * *

Test: passive permeability, PAMPA, ADME assay (AID 1508612)
Conditions: pH 7.4, 30.0 min, 50.0 µM
observed.property: Papp

# annotated cases, reported Papp shown
>  <molecule>
O=C(NCc1ccccc1)c1cn2cc(-c3ccccc3)sc2n1

>  <Papp>
> 1000 ×10⁻⁶ cm/s

$$$$
>  <molecule>
COc1ccc(Nc2cc(C)nc(-n3nc(C)cc3C)n2)cc1Cl

>  <Papp>
> 1000 ×10⁻⁶ cm/s

$$$$
>  <molecule>
CN1CCN(C(=O)Cc2c[nH]c3ncc(-c4ccccc4Oc4ccccc4)cc23)CC1

>  <Papp>
> 1000 ×10⁻⁶ cm/s

$$$$
>  <molecule>
COc1ccc(OC)c(-c2nc3c(C#N)c[nH]n3c2NC2CCCCC2)c1

>  <Papp>
> 1000 ×10⁻⁶ cm/s

$$$$
>  <molecule>
CS(=O)(=O)CCNCc1ccc(-c2ccc3ncnc(Nc4ccc(OCc5cccc(F)c5)c(Cl)c4)c3c2)o1

>  <Papp>
< 1 ×10⁻⁶ cm/s

$$$$

Q) Given the entry Cc1ccc(-c2nnc(Nc3ccc(Br)cc3)c3ccccc23)cc1S(=O)(=O)N1CCN(C)CC1 , report its measured Papp.
A) > 1000 ×10⁻⁶ cm/s

Q) What do we get for c1cc(OCCN2CCCCC2)cc(-c2n[nH]c3ccc(-c4ncn[nH]4)cc23)c1 ?
A) < 1 ×10⁻⁶ cm/s

Q) What do we get for Cc1ccccc1C(=O)N1CCc2cc(-c3nc(NC(=O)Cc4ccccc4)sc3C)ccc21 ?
A) > 1000 ×10⁻⁶ cm/s

Q) What do we get for CN1CCCC1CCOC(c1cc2nccc(C(=O)O)c2[nH]1)c1ccccc1Cl (stereo not drawn) ?
A) 1.1 ×10⁻⁶ cm/s

Q) What do we get for O=C(CCCN1CCC(O)(c2cccc(C(F)(F)F)c2)CC1)c1ccc(F)cc1 ?
A) > 1000 ×10⁻⁶ cm/s

Q) What do we get for Fc1ccc(-c2ccc(Nc3nc(-c4ccncc4)nc4ccccc34)cc2F)c(Cl)c1 ?
A) 20.9 ×10⁻⁶ cm/s

Q) What do we get for Cc1cccc(-n2cnc3cc(C(=O)N4CCCC(C)C4)ccc32)c1 (stereo not drawn) ?
A) > 1000 ×10⁻⁶ cm/s

* * *

Experiment: passive permeability, PAMPA, ADME assay (AID 1508612)
Conditions: pH 7.4, 30.0 min, 50.0 µM
observed.property: Papp

>  <compound>
Fc1cnc(-c2ccccc2C(F)F)nc1NCC1CCN(c2cnccn2)CC1

>  <Papp>
> 1000 ×10⁻⁶ cm/s

$$$$
>  <compound>
c1ccc2[nH]c(Nc3nc(-c4ccncc4)nc4ccccc34)nc2c1

>  <Papp>
> 1000 ×10⁻⁶ cm/s

$$$$
>  <compound>
CC1(C)CNc2cc(NC(=O)c3cccnc3NCc3ccncc3)ccc21

>  <Papp>
> 1000 ×10⁻⁶ cm/s

$$$$

API: the following record is the query input.
Q) Given the entry Cc1ccc(S(=O)(=O)N2CCN(C(=O)c3cc4c(s3)CCC4)CC2)cc1 , report its measured Papp.
A) > 1000 ×10⁻⁶ cm/s

* * *

Assay: passive permeability, PAMPA, ADME assay (AID 1508612)
Details: pH 7.4, 30.0 min, 50.0 µM
Each entry below lists one item and its recorded Papp value.

>  <compound>
O=C(Nc1ccc(S(=O)(=O)Nc2nc(-c3ccccc3)cs2)cc1)c1ccc2ccccc2c1

>  <result>
< 1 ×10⁻⁶ cm/s

$$$$
>  <compound>
CCN(CC)S(=O)(=O)c1cccc(C(=O)Nc2ccc(C#N)cc2)c1

>  <result>
> 1000 ×10⁻⁶ cm/s

$$$$
>  <compound>
Oc1ccc(CN2CC(CNc3ccccc3)C3(C2)CN(c2ccccc2)C3)cc1 (stereo unspecified)

>  <result>
> 1000 ×10⁻⁶ cm/s

$$$$
>  <compound>
c1ccc2c(N3CCOCC3)nc(-c3ccncc3)nc2c1

>  <result>
> 1000 ×10⁻⁶ cm/s

$$$$

Q) Given the entry CC1CC(C)(C)N(C(=O)CN2C(=O)c3ccccc3C2=O)c2ccccc21 (stereo unspecified) , report its measured Papp.
A) > 1000 ×10⁻⁶ cm/s

Q) What do we get for CN1CCN(CCCN2c3ccccc3Sc3ccc(S(=O)(=O)N(C)C)cc32)CC1 ?
A) > 1000 ×10⁻⁶ cm/s

* * *

Each entry below lists one item and its recorded Papp value.
Experiment: passive permeability, PAMPA, ADME assay (AID 1508612)
Conditions: pH 7.4, 30.0 min, 50.0 µM

# annotated cases, reported Papp shown
>  <compound>
Cc1ccc(S(=O)(=O)Nc2cnccc2C(=O)Nc2nc(C(=O)O)cs2)cc1

>  <Papp>
< 1 ×10⁻⁶ cm/s

$$$$
>  <compound>
COc1ccc2[nH]c(C[C@@H]3C[C@@H](C(C)C)[C@H](CNCc4ccccc4O)C=C3C)nc2n1

>  <Papp>
> 1000 ×10⁻⁶ cm/s

$$$$
>  <compound>
Cc1ccc(NC(=O)c2c(N3CCCC3=O)c3cc(C)ccc3n2C)c(C)c1

>  <Papp>
> 1000 ×10⁻⁶ cm/s

$$$$
>  <compound>
O=C(Nc1ccc(S(=O)(=O)Nc2nccs2)cc1)c1cccnc1

>  <Papp>
< 1 ×10⁻⁶ cm/s

$$$$
>  <compound>
C=C1c2cccc(O)c2C(O)=C2C(=O)[C@]3(O)C(O)=C(C(N)=O)C(=O)[C@@H](N(C)C)[C@@H]3[C@@H](O)[C@H]12

>  <Papp>
< 1 ×10⁻⁶ cm/s

$$$$

API: the following record is the query input.
Q) Given the entry CC(=O)c1c(C)[nH]c(C(=O)Nc2cccc(S(=O)(=O)N3CCCCCC3)c2)c1C , report its measured Papp.
A) > 1000 ×10⁻⁶ cm/s

* * *

Assay: passive permeability, PAMPA, ADME assay (AID 1508612)
Conditions: pH 7.4, 30.0 min, 50.0 µM
Each entry below lists one item and its recorded Papp value.
Kindly provide the numeric value in ×10⁻⁶ cm/s only, without the unit symbol.

Q) Given the entry Cc1ccc(C(=O)Nc2nc(-c3ccccn3)cs2)cc1S(=O)(=O)N1CCOCC1 , report its measured Papp.
A) 540

Q) What do we get for O=C(NC[C@H]1Cn2c(-c3ccc(Cl)cc3)cnc2CO1)C1CCCC1 ?
A) 108

Q) What do we get for CCc1ccc(NC(=O)c2cc3ncccn3n2)cc1 ?
A) 525

* * *

Each entry below lists one item and its recorded Papp value.
Test: passive permeability, PAMPA, ADME assay (AID 1508612)
Conditions: pH 7.4, 30.0 min, 50.0 µM

# annotated cases, reported Papp shown
>  <compound>
Cc1cc(C)nc(NC(=S)N2CCN(c3nccc(C(F)(F)F)n3)CC2)c1

>  <Papp>
> 1000 ×10⁻⁶ cm/s

$$$$
>  <compound>
C=CC(=O)Nc1cccc(Oc2nc(Nc3ccc(N4CCN(C)CC4)cc3)ncc2Cl)c1

>  <Papp>
> 1000 ×10⁻⁶ cm/s

$$$$

Q) Given the entry Nc1cccc(CNc2ccc(S(=O)(=O)Nc3nccs3)cc2)c1O , report its measured Papp.
A) < 1 ×10⁻⁶ cm/s

// data source = PubChem BioAssay AID1508612
